- system: CK1α (Homo sapiens, UniProt P48729+Q96SW2)
- Construct: expressed in transfected cells
- Sequence (P48729 whole entry): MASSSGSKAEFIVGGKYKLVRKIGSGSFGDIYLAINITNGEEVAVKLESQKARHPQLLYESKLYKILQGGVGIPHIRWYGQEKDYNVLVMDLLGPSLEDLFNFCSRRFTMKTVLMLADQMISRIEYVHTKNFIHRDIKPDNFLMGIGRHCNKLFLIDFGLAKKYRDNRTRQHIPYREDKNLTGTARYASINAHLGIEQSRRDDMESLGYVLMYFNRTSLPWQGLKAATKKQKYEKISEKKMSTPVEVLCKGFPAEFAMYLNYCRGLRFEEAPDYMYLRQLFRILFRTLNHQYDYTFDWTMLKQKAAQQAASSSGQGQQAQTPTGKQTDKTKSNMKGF
- Sequence (Q96SW2 whole entry): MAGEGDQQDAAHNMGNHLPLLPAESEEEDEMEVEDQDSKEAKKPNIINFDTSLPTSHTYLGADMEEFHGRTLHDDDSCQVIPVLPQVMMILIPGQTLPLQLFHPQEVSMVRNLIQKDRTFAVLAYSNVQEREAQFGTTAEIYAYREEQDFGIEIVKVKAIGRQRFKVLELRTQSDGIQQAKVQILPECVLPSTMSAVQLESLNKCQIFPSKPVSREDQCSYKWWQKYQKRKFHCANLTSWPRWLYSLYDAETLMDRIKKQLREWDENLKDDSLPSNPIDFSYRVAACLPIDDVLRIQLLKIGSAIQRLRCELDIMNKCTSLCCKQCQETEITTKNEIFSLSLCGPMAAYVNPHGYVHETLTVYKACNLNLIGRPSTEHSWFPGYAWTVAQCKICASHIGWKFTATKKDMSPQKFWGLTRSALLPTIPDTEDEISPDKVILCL
- Sequence (Q16531 whole entry partner): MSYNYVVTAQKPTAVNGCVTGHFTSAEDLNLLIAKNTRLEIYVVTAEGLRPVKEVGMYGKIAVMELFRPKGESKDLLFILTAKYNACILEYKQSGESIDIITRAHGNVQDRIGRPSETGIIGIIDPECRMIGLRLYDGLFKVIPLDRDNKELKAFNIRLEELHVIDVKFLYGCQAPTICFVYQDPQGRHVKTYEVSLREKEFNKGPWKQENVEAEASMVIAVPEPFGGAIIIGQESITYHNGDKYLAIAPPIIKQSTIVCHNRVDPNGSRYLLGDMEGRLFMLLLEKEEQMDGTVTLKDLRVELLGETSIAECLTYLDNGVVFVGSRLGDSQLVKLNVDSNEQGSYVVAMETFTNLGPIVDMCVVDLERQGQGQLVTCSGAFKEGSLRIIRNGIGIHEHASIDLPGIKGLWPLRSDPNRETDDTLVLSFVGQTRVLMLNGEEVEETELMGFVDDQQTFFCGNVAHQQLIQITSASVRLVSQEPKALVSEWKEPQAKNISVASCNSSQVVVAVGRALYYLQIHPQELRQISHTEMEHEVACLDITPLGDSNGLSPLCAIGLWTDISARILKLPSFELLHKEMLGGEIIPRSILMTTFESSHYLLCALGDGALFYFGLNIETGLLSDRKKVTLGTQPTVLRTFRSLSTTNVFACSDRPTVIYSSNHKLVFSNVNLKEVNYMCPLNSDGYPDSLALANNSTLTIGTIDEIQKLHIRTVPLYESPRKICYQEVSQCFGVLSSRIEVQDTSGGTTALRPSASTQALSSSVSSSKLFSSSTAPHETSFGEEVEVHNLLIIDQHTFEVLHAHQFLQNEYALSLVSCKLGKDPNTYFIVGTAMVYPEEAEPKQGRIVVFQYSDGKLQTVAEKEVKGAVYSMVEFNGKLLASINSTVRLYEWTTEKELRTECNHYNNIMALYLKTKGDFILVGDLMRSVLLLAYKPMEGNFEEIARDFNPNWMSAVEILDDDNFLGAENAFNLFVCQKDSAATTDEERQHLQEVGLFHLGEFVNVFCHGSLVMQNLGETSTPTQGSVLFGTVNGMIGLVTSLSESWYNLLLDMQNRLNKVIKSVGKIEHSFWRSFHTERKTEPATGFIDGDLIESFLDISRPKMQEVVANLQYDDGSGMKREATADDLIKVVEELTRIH
- experimentalProtocol: CK1α ePL degradation assay in MDS-L cells
- Assay type: cell-based
- condition: concentration giving 50% CK1α degradation vs DMSO control; MDS-L cells expressing ePL-tagged CK1α
property: DC50

Here is how some molecules turned out for DC50.
Exercise: Recorded DC50 of CN1CCN(Cc2ccc([C@@H](NC(=O)c3ccc4c(c3)CN(C3CCC(=O)NC3=O)C4=O)C(F)(F)F)cc2)CC1 (some centres unmarked) [Example 185] , please.
Solution: 100 to 500 nM

Exercise: I am curious: what DC50 value has been reported for O=C1CCC(N2Cc3c(ccc(C(=O)N[C@H](c4ccc(Cl)cc4)C(F)(F)F)c3F)C2=O)C(=O)N1 (some centres unmarked) [Example 93] ?
Solution: < 100 nM

Exercise: Please give the measured DC50 for this molecule: O=C1CCC(N2Cc3c(ccc(C(=O)N[C@H](C4CCCCC4)C(F)(F)F)c3F)C2=O)C(=O)N1 (some centres unmarked) [Example 121]
Solution: < 100 nM

Exercise: Quick one: DC50 for C[C@H](NC(=O)c1ccc2c(c1)CN(C1CCC(=O)NC1=O)C2=O)C1CCCC1 (some centres unmarked) [Example 3] ?
Solution: < 100 nM

Exercise: What value of DC50 has been recorded for this entry: O=C1CCC(N2Cc3cc(C(=O)N[C@H](c4cnccn4)C(F)(F)F)ccc3C2=O)C(=O)N1 (some centres unmarked) [Example 82]
Solution: 100 to 500 nM

Exercise: Bench note: what DC50 did CC(C)[C@H](NC(=O)c1ccc2c(c1)CN(C1CCC(=O)NC1=O)C2=O)c1ccccc1F (some centres unmarked) [Example 167] show?
Solution: < 100 nM

Exercise: // query DC50 value for entry O=C1CCC(N2Cc3cc(C(=O)N[C@H](c4ccccc4C(F)(F)F)C(F)(F)F)c(F)cc3C2=O)C(=O)N1 (some centres unmarked) [Example 88]
Solution: < 100 nM

Query molecule follows.
Exercise: Bench note: what DC50 did O=C1CCC(N2Cc3cc(C(=O)N[C@H](c4cccc(C(F)(F)F)n4)C(F)(F)F)ccc3C2=O)C(=O)N1 (some centres unmarked) [Example 125] show?
Solution: < 100 nM
